# Tested system: mPAD4 (Mus musculus)
# Test method notes: mPAD4 RFMS PAD4 inhibition assay
# Type: biochemical
# Measurement setup: mPAD4, RFMS readout; pIC50=−log(IC50); read-out: mPAD4 RFMS pIC50 (converted)
# Experimental: Compounds of the present invention were assayed as inhibitors of PAD4 using the assay protocol described below. Compound stock solutions were stored at RT. […] Final assay conditions were as follows: Total incubation time: 65 mins at 37° C. Stop solution: 40 μl 5% TCA in ACN The compound numbers correspond to the compound numbers in Table 1. […] The term pIC50=−log(IC50). […] “NA” stands for “not assayed.”
Structures can show the parent of a compound that is named as a salt.
IC50 values by entry

INSERT INTO measurements (compound, tested_system, endpoint_label, test_value) VALUES
  ('Cn1c(-c2cc3cccnc3n2CC2CC2)nc2cc(C(=O)N3CCC[C@@H](N)C3)cc(C(N)=O)c21 [Compound I-112, hydrochloride]', 'mPAD4 (Mus musculus)', 'IC50', '1 to 10 µM'),
  ('COc1cc(C(=O)N2CC3CCC2[C@H]3N)cc2nc(-c3cc4cccnc4n3CC3CC3)n(C)c12 (stereo partly shown) [Compound I-31]', 'mPAD4 (Mus musculus)', 'IC50', '< 1 µM'),
  ('COc1cc(C(=O)N2C[C@H]3CC[C@@H]2[C@@H](N)C3)cc2nc(-c3cc4cccnc4n3CC3CC3)n(C)c12 [Compound I-216]', 'mPAD4 (Mus musculus)', 'IC50', '10 to 100 µM'),
  ('CO[C@@H]1CCN(C(=O)c2cc(OC(F)F)c3c(c2)nc(-c2cc4cccnc4n2CC2CC2)n3C)C[C@@H]1N [Compound I-124]', 'mPAD4 (Mus musculus)', 'IC50', '1 to 10 µM'),
  ('CCCn1c(-c2nc3cc(C(=O)N4C[C@H]5CC[C@@H]4[C@@H]5N)cc(OC)c3n2C)cc2cccnc21 [Compound I-154]', 'mPAD4 (Mus musculus)', 'IC50', '< 1 µM'),
  ('COc1cc(C(=O)N2C[C@H]3CC[C@@H]2[C@@H]3N)cc2nc(-c3cc4cccnc4n3CC3CC3)n(C[C@@H]3CCOC3)c12 [Compound I-232]', 'mPAD4 (Mus musculus)', 'IC50', '< 1 µM'),
  ('CCn1c(-c2nc3cc(C(=O)N4C[C@H]5CC[C@@H]4[C@@H]5N)cc(OC)c3n2[C@H]2C[C@H](OC)C2)cc2cccnc21 [Compound I-207]', 'mPAD4 (Mus musculus)', 'IC50', '1 to 10 µM'),
  ('COCCn1c(-c2nc3cc(C(=O)N4C[C@H]5CC[C@@H]4[C@@H]5N)ccc3n2C)cc2ccc(OC)nc21 [Compound I-192]', 'mPAD4 (Mus musculus)', 'IC50', '1 to 10 µM');

query: Return the recorded IC50 value; entry: COc1cc(C(=O)N2C[C@H](N)C[C@@H](F)C2)cc2nc(-c3cc4cccnc4n3CC3CC3)n(C[C@H]3C[C@@](C)(OC)C3)c12 [Compound I-209]
result: < 1 µM

query: Return the recorded IC50 value; entry: CCOc1cc(C(=O)N2CC(N)CCC2C)cc2nc(-c3cc4cccnc4n3CC3CC3)n(C)c12 (stereo not shown) [Compound I-111]
result: < 1 µM

query: Return the recorded IC50 value; entry: Cn1c(-c2cc3cccnc3n2CC2CC2)nc2cc(C(=O)N3CCC[C@@H](N)C3)c(F)cc21 [Compound I-172]
result: 1 to 10 µM

query: Return the recorded IC50 value; entry: COc1cc(C(=O)N2C[C@H]3CC[C@@H]2[C@@H]3N)cc2nc(-c3cc4cccnc4n3CC3CC3)n(CC(F)F)c12 [Compound I-233]
result: < 1 µM

query: Return the recorded IC50 value; entry: CCn1c(-c2nc3cc(C(=O)N4C[C@H]5CC[C@@H]4[C@@H]5N)cc(OC)c3n2CC2CC(F)(F)C2)cc2cccnc21 [Compound I-179]
result: 1 to 10 µM

---

# Tested system: UniProt Q9Z183
# Test method notes: mPAD4 RFMS PAD4 inhibition assay
# Type: biochemical
# Measurement setup: mPAD4, RFMS readout; pIC50=−log(IC50); read-out: mPAD4 RFMS pIC50 (converted)
Structures can show the parent of a compound that is named as a salt.
Endpoint label: IC50

INSERT INTO assay_data (molecule, tested_system, test_value) VALUES
  ('CCn1c(-c2nc3cc(C(=O)N4CCC[C@@H](N)C4)cc(OC)c3n2C)cc2ccc(OC(F)F)nc21 [Compound I-201]', 'UniProt Q9Z183', '< 1 µM'),
  ('COc1cc(C(=O)N2C[C@H]3CC[C@@H]2[C@@H]3N)cc2nc(-c3cc4cccnc4n3CC3CC3)n(CC(F)F)c12 [Compound I-234]', 'UniProt Q9Z183', '1 to 10 µM'),
  ('COCCn1c(-c2nc3cc(C(=O)N4CCC[C@@H](N)C4)cc(OC)c3n2C)cc2cccnc21 [Compound I-137]', 'UniProt Q9Z183', '1 to 10 µM'),
  ('COc1cc(C(=O)N2C[C@@H](N)CC[C@@H]2C)cc2nc(-c3cc4cccnc4n3CC3CC3)n(C)c12 [Compound I-89]', 'UniProt Q9Z183', '10 to 100 µM'),
  ('COc1cc(C(=O)N2CC[C@H]3OCCN[C@H]3C2)cc2nc(-c3cc4cccnc4n3CC3CC3)n(C)c12 [Compound I-28]', 'UniProt Q9Z183', '< 1 µM');

query: Return the recorded IC50 value; entry: CCn1c(-c2nc3cc(C(=O)N4C[C@H]5CC[C@@H]4[C@@H]5N)cc(OC)c3n2C)cc2ccc(OC(F)F)nc21 [Compound I-200]
result: < 1 µM

query: Return the recorded IC50 value; entry: COc1cc(C(=O)N2CCC(OC(F)F)C(N)C2)cc2nc(-c3cc4cccnc4n3CC3CC3)n(C)c12 (racemic) [Compound I-86]
result: < 1 µM

query: Return the recorded IC50 value; entry: COc1cc(C(=O)N2C[C@H]3CC[C@@H]2[C@@H]3N)cc2nc(-c3cc4cccnc4n3CC3CC3)n([C@H]3C[C@H](F)C3)c12 [Compound I-224]
result: < 1 µM

query: Return the recorded IC50 value; entry: CN[C@@H]1C[C@@H](O)CN(C(=O)c2cc(OC)c3c(c2)nc(-c2cc4cccnc4n2CC2CC2)n3C)C1 (racemic) [Compound I-77, hydrochloride]
result: 10 to 100 µM

query: Return the recorded IC50 value; entry: CCn1c(-c2nc3cc(C(=O)N4C[C@H]5CC[C@@H]4[C@@H]5N)cc(OC)c3n2CCOC)cc2cccnc21 [Compound I-175]
result: 1 to 10 µM

query: Return the recorded IC50 value; entry: CCn1c(-c2cc3cccnc3n2CC2CC2)nc2cc(C(=O)N3C[C@@H](N)C[C@H](F)C3)cc(OC)c21 [Compound I-71]
result: < 1 µM

---

# Tested system: mPAD4 (Mus musculus, UniProt Q9Z183)
# Sequence (Q9Z183 whole entry): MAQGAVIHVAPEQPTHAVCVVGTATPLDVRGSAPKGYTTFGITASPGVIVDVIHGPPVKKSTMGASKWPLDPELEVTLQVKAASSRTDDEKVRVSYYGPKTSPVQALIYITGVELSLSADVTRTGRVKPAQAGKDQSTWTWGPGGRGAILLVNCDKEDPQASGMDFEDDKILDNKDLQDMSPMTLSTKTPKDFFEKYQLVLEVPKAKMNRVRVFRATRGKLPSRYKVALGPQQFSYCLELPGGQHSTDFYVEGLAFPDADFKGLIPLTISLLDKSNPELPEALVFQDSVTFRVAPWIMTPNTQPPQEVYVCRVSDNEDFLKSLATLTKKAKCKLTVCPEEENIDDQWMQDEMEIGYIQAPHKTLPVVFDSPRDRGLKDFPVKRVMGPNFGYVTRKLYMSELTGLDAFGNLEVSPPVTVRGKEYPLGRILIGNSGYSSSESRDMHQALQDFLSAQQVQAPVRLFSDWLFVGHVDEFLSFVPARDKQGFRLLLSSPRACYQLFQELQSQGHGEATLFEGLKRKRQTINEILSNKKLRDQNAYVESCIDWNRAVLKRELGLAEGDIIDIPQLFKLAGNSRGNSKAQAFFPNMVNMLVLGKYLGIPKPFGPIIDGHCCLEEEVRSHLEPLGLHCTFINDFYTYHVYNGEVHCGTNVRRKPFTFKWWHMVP
# Test method notes: mPAD4 RFMS PAD4 inhibition assay
# Assay type: biochemical
# Measurement setup: mPAD4, RFMS readout; read-out: mPAD4 RFMS IC50
Structures can show the parent of a compound that is named as a salt.
Endpoint label: IC50

INSERT INTO measurements (compound, test_value) VALUES
  ('COc1cc(C(=O)N2CC[C@H](OC)[C@H](N)C2)cc2nc(-c3cc4cccnc4n3CC3CC3)n(C)c12', '1 to 5 µM'),
  ('Cc1cc2c(cc1C(=O)N1CCC[C@@H](N)C1)nc(-c1cc3cccnc3n1CC1CC1)n2C [Compound I-103, hydrochloride]', '> 10 µM'),
  ('CCn1c(-c2nc3cc(C(=O)N4C[C@@H]5CC[C@H]4[C@H]5N)cc(OC)c3n2C)cc2ccc(OC)nc21', '> 10 µM'),
  ('Cn1c(-c2cc3cccnc3n2CC2CC2)nc2cc(C(=O)N3C[C@@H](N)C[C@H](F)C3)ccc21', '1 to 5 µM'),
  ('COc1cc(C(=O)N2CC[C@@H](OC)[C@@H](N)C2)cc2nc(-c3cc4cccnc4n3CC3CC3)n(C)c12', '< 1 µM');

query: Check mPAD4 (Mus musculus, UniProt Q9Z183) data and give IC50 for COc1cc(C(=O)N2C[C@H](N)C[C@@H](F)C2)cc2nc(-c3cc4ccc(C(F)(F)F)nc4n3CC3CC3)n(C)c12 .
result: < 1 µM

query: Check mPAD4 (Mus musculus, UniProt Q9Z183) data and give IC50 for CCn1c(-c2nc3cc(C(=O)N4C[C@H]5CC[C@@H]4[C@@H]5N)ccc3n2C)cc2cccnc21 .
result: 5 to 10 µM

query: Check mPAD4 (Mus musculus, UniProt Q9Z183) data and give IC50 for COc1ccc2cc(-c3nc4cc(C(=O)N5C[C@H](N)C[C@@H](F)C5)cc(OC(F)F)c4n3C)n(CC3CC3)c2n1 .
result: < 1 µM

query: Check mPAD4 (Mus musculus, UniProt Q9Z183) data and give IC50 for COc1cc2c(cc1C(=O)N1CCC[C@@H](N)C1)nc(-c1cc3cccnc3n1CC1CC1)n2C [Compound I-68, hydrochloride] .
result: > 10 µM

query: Check mPAD4 (Mus musculus, UniProt Q9Z183) data and give IC50 for COc1cc(C(=O)N2C[C@H]3CC[C@@H]2[C@@H](N)C3)cc2nc(-c3cc4cccnc4n3CC3CC3)n(C)c12 .
result: > 10 µM

query: Check mPAD4 (Mus musculus, UniProt Q9Z183) data and give IC50 for COc1cc(C(=O)N2C[C@@H](N)CC[C@@H]2C)cc2nc(-c3cc4cccnc4n3CC3CC3)n(C)c12 .
result: > 10 µM

query: Check mPAD4 (Mus musculus, UniProt Q9Z183) data and give IC50 for COc1cc(C(=O)N2CCC[C@@H](N)C2)cc2nc(-c3cc4cccnc4n3[C@H](C)C3CC3)n(C)c12 .
result: 1 to 5 µM

query: Check mPAD4 (Mus musculus, UniProt Q9Z183) data and give IC50 for COc1cc(C(=O)N2C[C@H]3COC[C@@]3(CN)C2)cc2nc(-c3cc4cccnc4n3CC3CC3)n(C)c12 .
result: > 10 µM

query: Check mPAD4 (Mus musculus, UniProt Q9Z183) data and give IC50 for CCn1c(-c2cc3cccnc3n2CC2CC2)nc2cc(C(=O)N3C[C@@H](N)C[C@H](F)C3)cc(OC)c21 .
result: < 1 µM

query: Check mPAD4 (Mus musculus, UniProt Q9Z183) data and give IC50 for COc1cc(C(=O)N2CC[C@H]3CCN[C@H]3C2)cc2nc(-c3cc4cncnc4n3CC3CC3)n(C)c12 .
result: > 10 µM

query: Check mPAD4 (Mus musculus, UniProt Q9Z183) data and give IC50 for CCOc1cc(C(=O)N2CC(N)CCC2C)cc2nc(-c3cc4cccnc4n3CC3CC3)n(C)c12 (stereo not drawn) .
result: < 1 µM

query: Check mPAD4 (Mus musculus, UniProt Q9Z183) data and give IC50 for COc1cc(C(=O)N2CC[C@@H]3CCN[C@@H]3C2)cc2nc(-c3cc4cccnc4n3CC3CC3)n(C)c12 .
result: < 1 µM
